# System: microorganisms
# Protocol: Targeting peptide binding to target microorganisms (Tables 3, 10, 12)
# Particulars: microorganism(s) the targeting peptide binds; binding in aqueous buffers varied with peptide solubility, preferably 1x PBS
Attribute Measured: Target(s)

| Substance | Endpoint Value |
| --- | --- |
| PF-677 (TCRGAGMH; Peptide with targeting and/or antimicrobial activity) | Mycobacteria spp |
| PF-660 (chain 1 TDPQATAAPRRRTSPR; chain 2 TDPQATAAPRRRTSPR; Peptide with targeting and/or antimicrobial activity) | Mycobacteria spp |
| PF-789 (PRGAQSGHG; Peptide with targeting and/or antimicrobial activity) | Mycobacteria spp. |
| PF-779 (IYGDFFNFYLCDISLKVNGLQPGGPVRTVKLFGQPTGRCTPQ; Peptide with targeting and/or antimicrobial activity) | Mycobacteria spp. |

----------
# Test system: microorganisms
# Protocol: Peptide activities: targeting/binding, antimicrobial, growth or phenotype altering (Tables 7, 8)
# Format: cell-based
# Particulars: peptides having multiple activities
Attribute Measured: Activities

| Substance | Target Under Test | Attribute Measured | Endpoint Value |
| --- | --- | --- | --- |
| PF-426: peptide having multiple activities (chain 1 MLQKYTQMISVTKCIITKNKKTQENVDAYN; chain 2 MLQKYTQMISVTKCIITKNKKTQENVDAYN; Peptide with targeting and/or antimicrobial activity) | microorganisms | Activities | G B |
| PF-128: peptide having multiple activities (chain 1 GIKVVAARFEEIQFSENFDSIILA; chain 2 GIKVVAARFEEIQFSENFDSIILA; Peptide with targeting and/or antimicrobial activity) | microorganisms | Activities | G B |
| PF-030: peptide having multiple activities (MTCHQAPTTTHQSNMA; Peptide with targeting and/or antimicrobial activity) | microorganisms | Activities | G B |

----------
# Test system: microorganisms
# Protocol: Morphology, biofilm and growth disrupting peptides (Table 5)
# Format: cell-based
# Set-up: key: A: Peptide aggregates; B: Less hyphal formation; Clumps; Diffuse clumps and small polyps; F: Diffuse growth; H: Thin; I: Growth inhibition; Microcolony formation; Rippled; Small polyps; Thick; W: Halo formation on top, microlonies on bottom
# Particulars: S. pneumoniae
Attribute Measured: Organism, effect

Some solved cases for reference:
| Substance | Endpoint Value |
| --- | --- |
| PF-697 (RADARAK; Peptide with targeting and/or antimicrobial activity) | S. pneumoniae (H) |
| PF-668 (chain 1 TNAESMALAFRGRVHMSVNIAGLT; chain 2 TNAESMALAFRGRVHMSVNIAGLT; Peptide with targeting and/or antimicrobial activity) | S. pneumoniae (M) |
| PF-468 (EDNKDKKDKKDK; Peptide with targeting and/or antimicrobial activity) | S. pneumoniae (H) |
| PF-454: peptide having multiple activities (MSVFVPVTNIFMFIMSPIFNVNLLHFKVYI; Peptide with targeting and/or antimicrobial activity) | S. pneumoniae (R) |
| PF-446: peptide having multiple activities (SGNEKV; Peptide with targeting and/or antimicrobial activity) | S. pneumoniae (H) |
| PF-514: peptide having multiple activities (QRFYKLFYHIDLTNEQALKLFQVK; Peptide with targeting and/or antimicrobial activity) | S. pneumoniae (M) |
| PF-457: peptide having multiple activities (INKYHHIA; Peptide with targeting and/or antimicrobial activity) | S. pneumoniae (M) |

Read the next record carefully.
Q: Recorded Organism, effect for PF-460: peptide having multiple activities (MEHVLPFQNTPPNIVIIYKDFTHLKSITFS; Peptide with targeting and/or antimicrobial activity) , please?
Ans: S. pneumoniae (R)

----------
# Tested on: microorganisms
# Protocol: Morphology, biofilm and growth disrupting peptides (Table 5)
# Format: cell-based
# Design: key: A: Peptide aggregates; B: Less hyphal formation; Clumps; Diffuse clumps and small polyps; F: Diffuse growth; H: Thin; I: Growth inhibition; Microcolony formation; Rippled; Small polyps; Thick; W: Halo formation on top, microlonies on bottom
# Particulars: S. pneumoniae
Attribute Measured: Organism, effect

Some solved cases for reference:
| Substance | Attribute Measured | Endpoint Value |
| --- | --- | --- |
| PF-761: peptide having multiple activities (SKFELVNYASGCSCGADCKCASETECKCASKK; Peptide with targeting and/or antimicrobial activity) | Organism, effect | S. pneumoniae (C) |
| PF-640: peptide having multiple activities (chain 1 MGDINRNF; chain 2 MGDINRNF; Peptide with targeting and/or antimicrobial activity) | Organism, effect | S. pneumoniae (I) |
| PF-425: peptide having multiple activities (chain 1 MMELVLKTIIGPIVVGVVLRIVDKWLNKDK; chain 2 MMELVLKTIIGPIVVGVVLRIVDKWLNKDK; Peptide with targeting and/or antimicrobial activity) | Organism, effect | S. pneumoniae (D) |
| PF-553: peptide having multiple activities (LTIVGNALQQKNQKLLLNQKKITSLG; Peptide with targeting and/or antimicrobial activity) | Organism, effect | S. pneumoniae (R) |
| PF-452: peptide having multiple activities (MNNWIKVAQISVTVINEVIDIMKEKQNGGK; Peptide with targeting and/or antimicrobial activity) | Organism, effect | S. pneumoniae (R) |
| PF-542: peptide having multiple activities (KKDNPSLNDQDKNAVLNLLALAK; Peptide with targeting and/or antimicrobial activity) | Organism, effect | S. pneumoniae (H) |
| PF-444: peptide having multiple activities (MAAKLWEEGKMVYASSASMTKRLKLAMSKV; Peptide with targeting and/or antimicrobial activity) | Organism, effect | S. pneumoniae (R) |
| PF-516: peptide having multiple activities (ASKQASKQASKQASKQ; Peptide with targeting and/or antimicrobial activity) | Organism, effect | S. pneumoniae (H) |
| PF-647 (chain 1 GTFLGQKCAAATAS; chain 2 GTFLGQKCAAATAS; Peptide with targeting and/or antimicrobial activity) | Organism, effect | S. pneumoniae (R) |
| PF-462: peptide having multiple activities (KNKTDTL; Peptide with targeting and/or antimicrobial activity) | Organism, effect | S. pneumoniae (H) |

Q: Record PF-445: peptide having multiple activities (ASMTKRLKLAMSKV; Peptide with targeting and/or antimicrobial activity) : what is its Organism, effect with microorganisms?
Ans: S. pneumoniae (M)

Q: Record PF-682 (RRGKSEQGLSRR; Peptide with targeting and/or antimicrobial activity) : what is its Organism, effect with microorganisms?
Ans: S. pneumoniae (A)

Q: Record EILNNNQVIKELTMKYKTQFESNLGGWTARARR [PF-580] : what is its Organism, effect with microorganisms?
Ans: S. pneumoniae (C)

Q: Record PF-662 (chain 1 GKQSRAHGPVASRREFRRKSG; chain 2 GKQSRAHGPVASRREFRRKSG; Peptide with targeting and/or antimicrobial activity) : what is its Organism, effect with microorganisms?
Ans: S. pneumoniae (A)

Q: Record PF-632: peptide having multiple activities (chain 1 TTIQGVASLEKHGFRYTIIYPTRI; chain 2 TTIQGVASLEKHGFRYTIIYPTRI; Peptide with targeting and/or antimicrobial activity) : what is its Organism, effect with microorganisms?
Ans: S. pneumoniae (M)

Q: Record PF-432: peptide having multiple activities (chain 1 FNGDSEFFLCIAF; chain 2 FNGDSEFFLCIAF; Peptide with targeting and/or antimicrobial activity) : what is its Organism, effect with microorganisms?
Ans: S. pneumoniae (D)

Q: Record PF-664: peptide having multiple activities (chain 1 DQLCVEYPARVSTG; chain 2 DQLCVEYPARVSTG; Peptide with targeting and/or antimicrobial activity) : what is its Organism, effect with microorganisms?
Ans: S. pneumoniae (M)

Q: Record PF-757: peptide having multiple activities (PQAISSVQQNA; Peptide with targeting and/or antimicrobial activity) : what is its Organism, effect with microorganisms?
Ans: S. pneumoniae (H)

Q: Record PF-670 (chain 1 TVIVAPMHSGV; chain 2 TVIVAPMHSGV; Peptide with targeting and/or antimicrobial activity) : what is its Organism, effect with microorganisms?
Ans: S. pneumoniae (H)

Q: Record PF-627: peptide having multiple activities (chain 1 INDLLSYFTLHEK; chain 2 INDLLSYFTLHEK; Peptide with targeting and/or antimicrobial activity) : what is its Organism, effect with microorganisms?
Ans: S. pneumoniae (I)

Q: Record GSVIKKRRKRMAKKKHRKLLKKTRIQRRRAGK [PF-527] : what is its Organism, effect with microorganisms?
Ans: S. pneumoniae (H)

----------
# Tested on: microorganisms
# Protocol: Peptide activities: targeting/binding, antimicrobial, growth or phenotype altering (Tables 7, 8)
# Type: cell-based
# Particulars: peptides having multiple activities
Attribute Measured: Activities

Some solved cases for reference:
| Substance | Endpoint Value |
| --- | --- |
| KFSDQIDKGQDALKDKLGDL [PF-525] | G M |
| PF-009: peptide having multiple activities (SKKYNHILNQENR; Peptide with targeting and/or antimicrobial activity) | G B |
| GIVLIGLKLIPLLANVLR [PF-322] | G M |
| PF-605: peptide having multiple activities (chain 1 HYRWNTQWWKY; chain 2 HYRWNTQWWKY; Peptide with targeting and/or antimicrobial activity) | G B |
| PF-757: peptide having multiple activities (PQAISSVQQNA; Peptide with targeting and/or antimicrobial activity) | G B |

Q: Record PF-074: peptide having multiple activities (chain 1 RDIHPIYFMTKD; chain 2 RDIHPIYFMTKD; Peptide with targeting and/or antimicrobial activity) : what is its Activities with microorganisms?
Ans: G B

Q: Record PF-313: peptide having multiple activities (YITSHKNARAIIKKFERDEILEEVITHYLNRK; Peptide with targeting and/or antimicrobial activity) : what is its Activities with microorganisms?
Ans: G B

Q: Record PF-C131: peptide having multiple activities (chain 1 QWIVAKREIRMHIYCHISVIHVIIFFG; chain 2 QWIVAKREIRMHIYCHISVIHVIIFFG; Peptide with targeting and/or antimicrobial activity) : what is its Activities with microorganisms?
Ans: G B
